System: Key Grass and Sedge Weeds as well as Grass Crops
Assay: Post-Emergent Test II: postemergent herbicidal activity, visual rating after 14 d (Table 8)
Assay type: in vivo
Conditions: post-emergence, 336 h, barnyardgrass (Echinochloa crus-galli), 70 g ai/ha, read-out: Visual Growth Reduction (%) 14 Days After Application ECHCG
Description: Herbicidal evaluations were made visually on a scale of 0 to 100 where 0 represents no activity and 100 represents complete plant death. […] A weighed amount, determined by the highest rate to be tested, of each test compound was placed in a 25 mL glass vial and was dissolved in 4 mL of a 97:3 v/v mixture of acetone and DMSO to obtain concentrated stock solutions. […]
Exercise: for every item that follows, state its recorded pest or weed control at 70 g/ha.

Worked examples, 3 compounds total:
                                   compound  recorded_value
0  Nc1c(F)c(-c2cccc3c2OC(F)(F)O3)nc(C(=O)O)c1Cl        0 to 29%
1  CC1(C)Oc2ccc(-c3nc(C(=O)O)c(Cl)c(N)c3F)cc2O1       85 to 94%
2  COC(=O)c1nc(-c2ccc3c(c2C)OC(F)(F)O3)cc(N)c1Cl        0 to 29%

List pest or weed control at 70 g/ha for every entry below, keeping the order given.
1. COC(=O)c1nc(-c2cc3c(cc2F)OCO3)c(F)c(N)c1OC
2. C=Cc1c(C(=O)O)nc(-c2ccc3c(c2)OC(F)(F)O3)c(F)c1N
3. COc1c(N)nc(-c2cc3c(cc2F)OC(F)(F)O3)nc1C(=O)O
4. COC(=O)c1nc(-c2ccc(I)c3c2OC(F)(F)O3)c(F)c(N)c1Cl
5. COC(=O)c1nc(-c2c(F)cc3c(c2F)OCO3)cc(N)c1Cl
6. C=Cc1c(C(=O)OC)nc(-c2cc3c(cc2F)OCO3)c(F)c1N

# output
1. 60 to 74%
2. 75 to 84%
3. 60 to 74%
4. 0 to 29%
5. 75 to 84%
6. 60 to 74%

----------
test system: Key Grass and Sedge Weeds as well as Grass Crops; assay: Post-Emergent Test II: postemergent herbicidal activity, visual rating after 14 d (Table 8); format: in vivo; settings: post-emergence, 336 h, yellow nutsedge (Cyperus esculentus), 70 g ai/ha, read-out: Visual Growth Reduction (%) 14 Days After Application CYPES
Exercise: for every item that follows, state its recorded pest or weed control at 70 g/ha.

Worked examples, 2 compounds total:
>>> df
                                   compound  recorded_value
0  COC(=O)c1nc(-c2ccc3c(c2)OC(C)O3)c(F)c(N)c1Cl (centres unmarked)       75 to 84%
1  COC(=O)c1nc(-c2cc3c(cc2F)OC(F)(F)O3)nc(N)c1OC       60 to 74%

List pest or weed control at 70 g/ha for every entry below, keeping the order given.
1. COC(=O)c1nc(-c2c(F)cc3c(c2F)OCO3)cc(N)c1Cl
2. COC(=O)c1nc(-c2cc3c(cc2Cl)OC(F)(F)O3)cc(N)c1Cl
3. Nc1c(F)c(-c2cccc3c2OC(F)(F)O3)nc(C(=O)O)c1Cl

# output
0 to 29%
0 to 29%
0 to 29%

----------
Exercise: for every item that follows, state its recorded pest or weed control at 70 g/ha.
system: Key Grass and Sedge Weeds as well as Grass Crops; test: Post-Emergent Test II: postemergent herbicidal activity, visual rating after 14 d (Table 8); format: in vivo; settings: post-emergence, 336 h, barnyardgrass (Echinochloa crus-galli), 70 g ai/ha, read-out: Visual Growth Reduction (%) 14 Days After Application ECHCG

Worked examples, 8 compounds total:
>>> print(df.to_string())
                      smiles_representation  recorded_value
0  COC(=O)c1nc(-c2ccc3c(c2F)OC(F)(F)O3)nc(N)c1Cl       85 to 94%
1  Nc1c(Cl)c(C(=O)O)nc(-c2cc3c(cc2F)OC(F)(F)O3)c1Cl        0 to 29%
2  Nc1c(F)c(-c2ccc3c(c2F)OC(F)(F)O3)nc(C(=O)O)c1Cl      95 to 100%
3  Nc1c(F)c(-c2cc(F)c3c(c2)OC(F)(F)O3)nc(C(=O)O)c1Cl       60 to 74%
4  Nc1c(F)c(-c2ccc(Br)c3c2OC(F)(F)O3)nc(C(=O)O)c1Cl        0 to 29%
5  COC(=O)c1nc(-c2ccc3c(c2)OC(C)(C)O3)c(F)c(N)c1Cl      95 to 100%
6  COC(=O)c1nc(-c2cc3c(cc2F)OC(F)(F)O3)nc(N)c1Cl       75 to 84%
7  Nc1cc(-c2ccc3c(c2F)OC(F)(F)O3)nc(C(=O)O)c1Cl       85 to 94%

# input Form field: reported pest or weed control at 70 g/ha of Nc1c(Cl)c(C(=O)O)nc(-c2ccc3c(c2F)OC(F)(F)O3)c1Cl
# output 0 to 29%
